Test system: DNA
Assay: Binding affinity to duplex DNA (unknown origin) using fluorescent tagged F10T model assessed as stabilization by measuring change in melting temperature at 2 uM by fluorescence based analysis
Assay type: nucleic-acid assay
MEASURED METRIC: ΔTm (°C)

Below: 3 compounds and their reported ΔTm.
* CCCCCCCCc1c2[n+](c3c4c(c(OC)ccc14)N(CCN(C)C)C=C3)CCc1cc3c(cc1-2)OCO3 | 0.4
* CCCCCCCCc1c2[n+](cc3c(NCCCN4CCCC4)c(OC)ccc13)CCc1cc3c(cc1-2)OCO3 | 1.8
* COc1ccc2cc3[n+](cc2c1OC)CCc1cc2c(cc1-3)OCO2 [BERBERINE] | 2.1

[A] CCCCCCCCc1c2[n+](cc3c(NCCCN4CCOCC4)c(OC)ccc13)CCc1cc3c(cc1-2)OCO3
[B] CCCCCCCCc1c2[n+](cc3c(NCCN(C)C)c(OC)ccc13)CCc1cc3c(cc1-2)OCO3.[Cl-]
Sort A and B by ΔTm descending and give the first. Select an item and report its label.
A

###

Assay: Drug concentration in Sprague-Dawley rat plasma at 1 mg/kg, iv measured after 5 mins by LC-MS/MS analysis
Format: ADME, organism-based
MEASURED METRIC: concentration at 5 min (ng/mL)
Expressed in ng/mL, but write only the number.

molecule CCCCCCCCc1c2[n+](cc3c(NCCN(C)C)c(OC)ccc13)CCc1cc3c(cc1-2)OCO3.[Cl-] , concentration at 5 min observed: 758

###

Assay: Clearance in Sprague-Dawley rat at 1 mg/kg, iv measured for 24 hrs by LC-MS/MS analysis
Type: ADME, organism-based
Conditions: in vivo
MEASURED METRIC: clearance (mL/min/kg)
Number in mL/min/kg, nothing else.

What the record says about CCCCCCCCc1c2[n+](cc3c(NCCN(C)C)c(OC)ccc13)CCc1cc3c(cc1-2)OCO3.[Cl-] : clearance is 21.7

###

Assay: Initial plasma concentration in Sprague-Dawley rat at 1 mg/kg, iv by LC-MS/MS analysis
Format: ADME, organism-based
MEASURED METRIC: C0 (ng/mL)
Record the value in ng/mL, omitting the unit from your answer.

So, CCCCCCCCc1c2[n+](cc3c(NCCN(C)C)c(OC)ccc13)CCc1cc3c(cc1-2)OCO3.[Cl-] ? Its C0 was 872

###

Assay: Half life in Sprague-Dawley rat at 1 mg/kg, iv measured for 24 hrs by LC-MS/MS analysis
Assay type: ADME, organism-based
Settings: in vivo
MEASURED METRIC: half-life (h)
Numbers only; they are read as h.

Note to self: half-life recorded for CCCCCCCCc1c2[n+](cc3c(NCCN(C)C)c(OC)ccc13)CCc1cc3c(cc1-2)OCO3.[Cl-] was 2.62

###

System: Quadruplex DNA
Assay: Binding affinity to c-MYC G4-quadruplex DNA (unknown origin) using fluorescent tagged FPu18T model assessed as stabilization by measuring change in melting temperature at 2 uM incubated in presence of non-fluorescent ds26 DNA by fluorescence based analysis
Type: nucleic-acid assay
MEASURED METRIC: ΔTm (°C)

• CCCCCCCCc1c2[n+](cc3c(NCCN(C)C)c(OC)ccc13)CCc1cc3c(cc1-2)OCO3.[Cl-] = 20.9
• CCCCCCCCc1c2[n+](cc3c(NCCCN4CCCC4)c(OC)ccc13)CCc1cc3c(cc1-2)OCO3 = 19.3
• CCCCCCCCc1c2[n+](cc3c(NCCCN4CCOCC4)c(OC)ccc13)CCc1cc3c(cc1-2)OCO3 = 17.4
• CCCCCCCCc1c2[n+](c3c4c(c(OC)ccc14)N(CCN(C)C)C=C3)CCc1cc3c(cc1-2)OCO3 = 21.1

Each recorded value in this set is attributed to ChEMBL document CHEMBL5241127.
